# system: NR2F6 (Homo sapiens, UniProt P10588)
# Construct: expressed in transfected cells; also transient transfection
# Sequence (P10588 1-404): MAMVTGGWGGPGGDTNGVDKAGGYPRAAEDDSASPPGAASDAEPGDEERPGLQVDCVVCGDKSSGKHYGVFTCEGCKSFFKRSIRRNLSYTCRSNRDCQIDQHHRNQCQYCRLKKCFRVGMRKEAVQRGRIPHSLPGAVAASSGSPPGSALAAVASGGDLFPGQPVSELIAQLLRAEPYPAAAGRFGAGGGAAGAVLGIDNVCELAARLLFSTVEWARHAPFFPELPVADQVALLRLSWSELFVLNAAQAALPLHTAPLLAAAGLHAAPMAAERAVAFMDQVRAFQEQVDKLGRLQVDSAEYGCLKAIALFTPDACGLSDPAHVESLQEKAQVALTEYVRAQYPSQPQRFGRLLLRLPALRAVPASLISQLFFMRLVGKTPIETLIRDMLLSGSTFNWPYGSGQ
# assay.method.text: NR2F6 agonist screening, Firefly signal cmpd/DMSO
# Assay type: cell-based
# assay.conditions: 40 uM; F4
quantity.kind: Firefly F4, cmpd/DMSO (mean)

Consider the worked cases shown below.
> print(dat)
                                   compound                                system  observed.value
1  O=S1(=O)C[C@H](NC2CCCCC2)[C@@H](S(=O)(=O)c2ccc(Cl)cc2)C1  NR2F6 (Homo sapiens, UniProt P10588)             2.1
2  O=S1(=O)C[C@H](N2CCCC2)[C@@H](S(=O)(=O)c2ccc(Cl)cc2)C1  NR2F6 (Homo sapiens, UniProt P10588)             0.7
3  COCCCN[C@H]1CS(=O)(=O)C[C@@H]1S(=O)(=O)c1ccc(Cl)cc1  NR2F6 (Homo sapiens, UniProt P10588)             2.3
4  COCCN[C@H]1CS(=O)(=O)C[C@@H]1S(=O)(=O)c1cccs1  NR2F6 (Homo sapiens, UniProt P10588)             4.0
5  O=S1(=O)C[C@H](NC2CCCC2)[C@@H](S(=O)(=O)c2ccc(F)cc2)C1  NR2F6 (Homo sapiens, UniProt P10588)             3.6

# lookup: Firefly F4, cmpd/DMSO (mean) of Cc1cc(S(=O)(=O)[C@H]2CS(=O)(=O)C[C@@H]2NCC2CCCO2)ccc1F (some centres unmarked)
2.2

Now the compound CC(C)N[C@H]1CS(=O)(=O)C[C@@H]1S(=O)(=O)c1ccc(Cl)cc1
2.4

Now the compound CCCN[C@H]1CS(=O)(=O)C[C@@H]1S(=O)(=O)c1ccc(Cl)cc1
0.5

The measured values listed here are drawn from patent US11377442B2.
